B1: LINE1-mini (parent)
chain: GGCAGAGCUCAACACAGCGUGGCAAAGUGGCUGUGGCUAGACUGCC

# Variants of: B1
# Protocol Details: self-cleavage, relative activity (ratio to wild type); higher = more cleavage; in vitro, sequencing; the parent is a self-cleaving ribozyme
Value Type: self-cleavage
Just the number, please, no unit after it.

Recorded self-cleavage, per entry:
Exam item: Quick one: self-cleavage of GGCAGAGCUCAACACAGCGUGGCAAAGUGGCUGUGGUUAGACUGAC ?
Marked response: 0.06

Exam item: What do you get for GGCAGAACUCAACACAGCGUGGCAAAGUGGCUGUGGCUAGACUGUC ?
Marked response: 0.21

Exam item: Try this variant too: GGCAGAGCUCAACACAGUGUGGCAAAGUGGCUGUGGCUAGAGUGCC
Marked response: 0.05

Exam item: Another: GGCAGAGCUCAACACAGCGCGGCAAAGUGGCUGUGGCUAGGCUGCC
Marked response: 1

Exam item: Param item: GGUAGAGCUAAACACAGCGUGGCAAAGUGGCUGUGGCUAGACUGCC
Marked response: 0.05

Exam item: Item: GGCAGUGCUCAACACAGCGUGGCAAAGUGGCUGUGGCUAGACUACC
Marked response: 0.64

Next variant, please.
Exam item: Record request: self-cleavage value, item GGCAGAGCUCCACACAGCGUGGCAAAGUAGCUGUGGCUAGACUGCC
Marked response: 0.06
